target: T1, human CLDN-18.2 (human, UniProt P56856-2 1-261); assay: flow cytometry (FACS) on NUGC4-CLDN-18.2 cells, fluorescent secondary antibody, MFI
T1 construct: whole, on cells

>  <binder>
humanized anti-CLDN-18.2 antibody JS012-Chi9-hu7 (antibody, human IgG1, kappa, V domains shown) VH: QIQLVQSGSELKKPGESVKVSCKASGYTFTNYGMNWVRQAPGQGLEWMGWINTYTGESTYADGFTGRFVFSSDTSARTAYLQISSLKAEDTAVYFCATLGYGNSLAYWGQGTLVTVSS VL: DIVMTQSPDSLAVSLGERATINCKSSQSLLNSGNQRNYLTWYQQKPGQPPKLLIYWASTRESGVPDRFSGSGSGTDFTLTISSLQAEDVAVYYCQNNYFYPFTFGQGTKLEIKR

>  <EC50 (read off the curve)>
~1 µg/mL

$$$$

src = patent US20240059771A1
